Where these numbers come from: paper PMC11363325

Assay: physchem
Type: physicochemical
Settings: octanol-phosphate buffer, pH 7.4; read-out: log D7.4
measurement kind: logD

Problem: Hello, please tell me recorded logD for this one: CCC(CC)O[C@@H]1C=C(C(=O)O)C[C@H](NC(=N)N)[C@H]1NC(C)=O [GOC, guanidino oseltamivir carboxylate, reference compound]
Solution: -1.49

* * *

Experiment: Stability of OSC-GCDIs and GOC release in BALB/c serum
Type: in vitro ADME
Conditions: BALB/c, mouse, serum
measurement kind: half-life at 200 μM

compound	half-life at 200 μM
CCC(CC)O[C@@H]1C=C(C(=O)O)C[C@H](N=C(N2C(=O)c3ccccc3C2=O)N2C(=O)c3ccccc3C2=O)[C@H]1NC(C)=O [OSC-GCDI(P)]	1.3 min

Problem: Hello, please tell me recorded half-life at 200 μM for this one: CCC(CC)O[C@@H]1C=C(C(=O)O)C[C@H](N=C(N2C(=O)CC(C)(C)C2=O)N2C(=O)CC(C)(C)C2=O)[C@H]1NC(C)=O [OSC-GCDI(D)]
Solution: > 100 min

* * *

Assay: Stability of OSC-GCDIs in phosphate buffers
Type: physicochemical
Conditions: sodium phosphate buffer, pH 6.5, phosphate buffer pH 6.5, 37 °C; read-out: T1/2
measurement kind: half-life at 100 μM

Here is how some compounds turned out for half-life at 100 μM.
compound	endpoint value
CCCCC1CC(=O)N(C(=N[C@H]2CC(C(=O)O)=C[C@@H](OC(CC)CC)[C@@H]2NC(C)=O)N2C(=O)CC(CCCC)C2=O)C1=O (stereo partly shown)	> 24 h
CCC(CC)O[C@@H]1C=C(C(=O)O)C[C@H](N=C(N2C(=O)CC(C)(C)C2=O)N2C(=O)CC(C)(C)C2=O)[C@H]1NC(C)=O	> 24 h
CCC(CC)O[C@@H]1C=C(C(=O)O)C[C@H](N=C(N2C(=O)c3ccccc3C2=O)N2C(=O)c3ccccc3C2=O)[C@H]1NC(C)=O	1.47 h

Let's switch to this compound now.
Problem: Hello, please tell me recorded half-life at 100 μM for this one: CCC(CC)O[C@@H]1C=C(C(=O)O)C[C@H](N=C(N2C(=O)[C@H]3CCCC[C@H]3C2=O)N2C(=O)[C@H]3CCCC[C@H]3C2=O)[C@H]1NC(C)=O
Solution: 10.5 h

* * *

Quick reference: logD of the listed items.
Assay: physchem
Format: physicochemical
Details: pH 7.4
Lab note: jot the number down without any unit.

Here is how some molecules turned out for logD.
molecule	logD
CCC(CC)O[C@@H]1C=C(C(=O)O)C[C@H](N=C(N2C(=O)[C@H]3CCCC[C@H]3C2=O)N2C(=O)[C@H]3CCCC[C@H]3C2=O)[C@H]1NC(C)=O [OSC-GCDI(C)]	0.46
CCCCC1CC(=O)N(C(=N[C@H]2CC(C(=O)O)=C[C@@H](OC(CC)CC)[C@@H]2NC(C)=O)N2C(=O)CC(CCCC)C2=O)C1=O (some centres unmarked) [OSC-GCDI(B)]	0.91
CCOC(=O)C1=C[C@@H](OC(CC)CC)[C@H](NC(C)=O)[C@@H](N)C1 [OS-P, Oseltamivir phosphate, reference compound]	-0.42
CCC(CC)O[C@@H]1C=C(C(=O)O)C[C@H](N=C(N2C(=O)CC(C)(C)C2=O)N2C(=O)CC(C)(C)C2=O)[C@H]1NC(C)=O [OSC-GCDI(D)]	-0.32

Let's switch to this molecule now.
Problem: Hello, please tell me recorded logD for this one: CCC(CC)O[C@@H]1C=C(C(=O)O)C[C@H](N=C(N2C(=O)c3ccccc3C2=O)N2C(=O)c3ccccc3C2=O)[C@H]1NC(C)=O [OSC-GCDI(P)]
Solution: 1.01
